Biological target: T1, human TGF-β3 (human, UniProt P10600 301-412)
T1 sequence: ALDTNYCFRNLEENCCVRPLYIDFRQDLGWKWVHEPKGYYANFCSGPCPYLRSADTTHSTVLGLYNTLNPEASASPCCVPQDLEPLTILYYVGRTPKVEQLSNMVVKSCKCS
Assay: cell-based or functional assay
MEASURED_QUANTITY: IC 50 (ng/ml), TMLEC PAI-1 promoter luciferase assay (ng/mL)
The reply should be a number in ng/mL, with the unit left off.

# example entries with known answers
{"BINDER": "MTGF-β3-9/8 (antibody, IgG2a, V domains shown) VH: QVLLQQSGPELVKPGASVKISCKASGYAFSSSWMHWVKQRPGKGLEWIGRIFPGDGDTIYNGNFKGKATLTADKSSSTAYMQLSSLTSEDSAVYFCARRMITTQAAMDYWGQGTSVTVSS VL: SIVMTQTPKFLLVSAGDRVTITCKASQSVINDVAWYQQKPGQSPKLLIYYASNRYTGVPDRFTGNGYGTDFTFTISTVQAEDLAVYFCQQDYSSPYTFGGGTKLEIK", "UNIT_OF_MEASUREMENT": "ng/mL", "RESULT_VALUE": 13}
{"BINDER": "MTGF-β3-1901/16 (antibody, IgG1, V domains shown) VH: QVLLQQSGPELVKPGASVKISCKASGYAFSSSWIHWVKQRPGKGLEWIGRIYPGDGDTNYTGKFKGKATLTADKSSSTAYMQLSSLTSEDSAVYFCARRMITTQAAMDYWGQGTSVTVSS VL: SFVMTQTPKFLLVSAGDRVTITCKASQSVINAVAWYQQKPGQSPKLLIYYASNRYTGVPDRFTGNGYGTDFTFTISTVQAEDLAVYFCQQDYSSPYTFGGGTKLEIK", "UNIT_OF_MEASUREMENT": "ng/mL", "RESULT_VALUE": 25}

// returns reported IC 50 (ng/ml), TMLEC PAI-1 promoter luciferase assay for input 1D11 mouse monoclonal anti-TGF-ß antibody (antibody, from another filing, V domains shown) VH: QVQLQQSGPELVRPGASVKLSCKASGYIFITYWMNWVKQRPGQGLEWIGQIFPASGSTNYNEMFEGKATLTVDTSSSTAYMQLSSLTSEDSAVYYCARGDGNYALDAMDYWGQGTSVTVSS VL: DIVLTQSPASLAVSLGQRATISCRASESVDSYGNSFMHWYQQKSGQPPKLLIYLASNLESGVPARFSGSGSRTDFTLTIDPVEADDAATYYCQQNNEDPLTFGAGTKLEIK
6.5
